Where these numbers come from: ChEMBL document CHEMBL4393657

Test system: Aspergillus flavus
EXPERIMENT_SUMMARY: Antifungal activity against Aspergillus flavus
Assay type: functional
READOUT_KIND: MIC

>  <SMILES>
CC[C@H]1O[C@@H](/C(C)=C/[C@H](C)/C=C/[C@@H]2[C@@H](C)[C@@H]2/C=C/[C@@H]2O[C@H](Cc3nn[nH]n3)C[C@H](N(C)C)[C@H]2O)CC=C1C

>  <OBS_VALUE>
1.5 mg/L

$$$$
>  <SMILES>
COc1ccc(-n2nnnc2C(=O)CN2CCN(c3nc4c(cc3F)c(=O)c(C(=O)O)cn4C3CC3)CC2)cc1

>  <OBS_VALUE>
6.25 to 100 mg/L

$$$$
>  <SMILES>
O=C(O)c1cn(C2CC2)c2nc(N3CCN(CC(=O)c4nnnn4-c4ccc([N+](=O)[O-])cc4)CC3)c(F)cc2c1=O

>  <OBS_VALUE>
6.25 to 100 mg/L

$$$$
>  <SMILES>
O=C(O)c1cn(C2CC2)c2nc(N3CCN(CC(=O)c4nnnn4-c4ccc(Br)cc4)CC3)c(F)cc2c1=O

>  <OBS_VALUE>
6.25 to 100 mg/L

$$$$

====

Test system: Cryptococcus neoformans
EXPERIMENT_SUMMARY: Antifungal activity against Cryptococcus neoformans LA314 assessed as reduction in fungal cell growth incubated for 48 hrs by broth microdilution method
Type: functional
CONDITIONS: LA314, 48 h

>  <COMPOUND>
COc1ccccc1N1CCN(CCc2nnnn2[C@@H](C)[C@](O)(Cn2cncn2)c2ccc(F)cc2F)CC1

>  <MIC>
0.12 to 16 µg/mL

$$$$
>  <COMPOUND>
C[C@H](n1nnnc1CCN1CCN(C(c2ccccc2)c2ccccc2)CC1)[C@](O)(Cn1cncn1)c1ccc(F)cc1F

>  <MIC>
0.12 to 16 µg/mL

$$$$
>  <COMPOUND>
OC(Cn1cncn1)(Cn1nnnc1CCN1CCN(c2ccc(Cc3ccccc3)cc2)CC1)c1ccc(F)cc1F (stereo not drawn)

>  <MIC>
0.5 to 16 µg/mL

$$$$
>  <COMPOUND>
COc1ccc(N2CCN(CCc3nnn(CC(O)(Cn4cncn4)c4ccc(F)cc4F)n3)CC2)cc1 (stereo not drawn)

>  <MIC>
1 to 16 µg/mL

$$$$
>  <COMPOUND>
COc1ccc(N2CCN(CCc3nnnn3[C@@H](C)[C@](O)(Cn3cncn3)c3ccc(F)cc3F)CC2)cc1

>  <MIC>
0.12 to 16 µg/mL

$$$$
>  <COMPOUND>
OC(Cn1cncn1)(Cn1nnnc1CCN1CCN(c2cccc(C(F)(F)F)c2)CC1)c1ccc(F)cc1F (stereo not drawn)

>  <MIC>
0.5 to 16 µg/mL

$$$$
>  <COMPOUND>
OC(Cn1cncn1)(Cn1nnnc1CCN1CCN(c2ccccc2)CC1)c1ccc(F)cc1F (stereo not drawn)

>  <MIC>
0.5 to 16 µg/mL

$$$$
>  <COMPOUND>
COc1ccccc1N1CCN(CCc2nnn([C@@H](C)[C@](O)(Cn3cncn3)c3ccc(F)cc3F)n2)CC1

>  <MIC>
0.25 to 16 µg/mL

$$$$

====

Each entry below carries its recorded MIC.
Test system: Candida parapsilosis
EXPERIMENT_SUMMARY: Antifungal activity against Candida parapsilosis ATCC 22019 assessed as reduction in fungal cell growth incubated for 48 hrs by broth microdilution method
Assay type: functional
CONDITIONS: Lodderomyces parapsilosis, ATCC 22019, 48 h

>  <COMPOUND>
C[C@H](n1nnnc1CCN1CCN(c2cccc(C(F)(F)F)c2)CC1)[C@](O)(Cn1cncn1)c1ccc(F)cc1F

>  <MIC>
0.12 to 1 µg/mL

$$$$
>  <COMPOUND>
OC(Cn1cncn1)(Cn1nnc(CCN2CCN(C(c3ccccc3)c3ccccc3)CC2)n1)c1ccc(F)cc1F (stereo not drawn)

>  <MIC>
1 to 16 µg/mL

$$$$
>  <COMPOUND>
CC(n1nnc(CCN2CCN(c3ccccn3)CC2)n1)C(O)(Cn1cncn1)c1ccc(F)cc1F (stereo not drawn)

>  <MIC>
1 to 16 µg/mL

$$$$
>  <COMPOUND>
COc1ccc(N2CCN(CCc3nnn([C@@H](C)[C@](O)(Cn4cncn4)c4ccc(F)cc4F)n3)CC2)cc1

>  <MIC>
0.25 to 16 µg/mL

$$$$
>  <COMPOUND>
CC(n1nnc(CCN2CCN(c3ccccc3Cl)CC2)n1)C(O)(Cn1cncn1)c1ccc(F)cc1F (stereo not drawn)

>  <MIC>
1 to 16 µg/mL

$$$$
>  <COMPOUND>
CC(n1nnc(CCN2CCN(C(c3ccccc3)c3ccccc3)CC2)n1)C(O)(Cn1cncn1)c1ccc(F)cc1F (stereo not drawn)

>  <MIC>
1 to 16 µg/mL

$$$$
>  <COMPOUND>
OC(Cn1cncn1)(Cn1nnc(CCN2CCN(Cc3ccccc3)CC2)n1)c1ccc(F)cc1F (stereo not drawn)

>  <MIC>
1 to 16 µg/mL

$$$$
>  <COMPOUND>
C[C@H](n1nnc(CCN2CCN(c3ccc(Cl)cc3)CC2)n1)[C@](O)(Cn1cncn1)c1ccc(F)cc1F

>  <MIC>
0.25 to 16 µg/mL

$$$$

====

Each entry below carries its recorded MIC.
Tested on: Candida albicans
EXPERIMENT_SUMMARY: Antifungal activity against Candida albicans assessed as reduction in fungal cell growth incubated for 24 hrs by broth microdilution method
Assay type: functional

>  <SMILES>
FC(F)(F)c1cc(-c2ccc(I)cc2)nc2nnnn12

>  <READOUT_UNITS>
µg/mL

>  <CENSORING_OPERATOR>
=

>  <MIC>
62.5

$$$$
>  <SMILES>
Fc1cc2nc(SCc3ccc(-c4ccccc4-c4nnnn4C(c4ccccc4)(c4ccccc4)c4ccccc4)cc3)[nH]c2cc1Oc1ccc(Cl)cc1

>  <READOUT_UNITS>
µg/mL

>  <CENSORING_OPERATOR>
=

>  <MIC>
16

$$$$
>  <SMILES>
FC(F)(F)c1cc(-c2ccc(Br)cc2)nc2nnnn12

>  <READOUT_UNITS>
µg/mL

>  <CENSORING_OPERATOR>
=

>  <MIC>
62.5

$$$$
>  <SMILES>
C[C@@H]1[C@H](O)[C@@H](C)/C=C/C=C/C=C/C=C/C=C/C=C/C=C/[C@H](O[C@@H]2O[C@H](C)[C@@H](O)[C@H](N)[C@@H]2O)C[C@@H]2O[C@](O)(C[C@@H](O)C[C@@H](O)[C@H](O)CC[C@@H](O)C[C@@H](O)CC(=O)O[C@H]1C)C[C@H](O)[C@H]2C(=O)O

>  <READOUT_UNITS>
µg/mL

>  <CENSORING_OPERATOR>
<

>  <MIC>
0.48

$$$$

====

Tested on: Candida parapsilosis
EXPERIMENT_SUMMARY: Antifungal activity against Candida parapsilosis ATCC 22019 assessed as reduction in fungal cell growth incubated for 48 hrs by broth microdilution method
Format: functional
CONDITIONS: Lodderomyces parapsilosis, ATCC 22019, 48 h

>  <COMPOUND>
O=[N+]([O-])c1ccc(N2CCN(CCc3nnnn3CC(O)(Cn3cncn3)c3ccc(F)cc3F)CC2)cc1 (configuration not stated)

>  <MIC>
0.5 to 16 µg/mL

$$$$
>  <COMPOUND>
CC(n1nnc(CCN2CCN(c3cccc(Cl)c3)CC2)n1)C(O)(Cn1cncn1)c1ccc(F)cc1F (configuration not stated)

>  <MIC>
1 to 16 µg/mL

$$$$
>  <COMPOUND>
CC(n1nnnc1CCN1CCN(c2ccc(F)cc2)CC1)C(O)(Cn1cncn1)c1ccc(F)cc1F (configuration not stated)

>  <MIC>
0.5 to 16 µg/mL

$$$$
>  <COMPOUND>
OC(Cn1cncn1)(Cn1nnc(CCN2CCN(c3ccccc3Cl)CC2)n1)c1ccc(F)cc1F (configuration not stated)

>  <MIC>
1 to 16 µg/mL

$$$$
>  <COMPOUND>
CC(n1nnnc1CCN1CCN(c2ccc(Cl)cc2)CC1)C(O)(Cn1cncn1)c1ccc(F)cc1F (configuration not stated)

>  <MIC>
0.5 to 16 µg/mL

$$$$
>  <COMPOUND>
C[C@H](n1nnc(CCN2CCN(Cc3ccccc3)CC2)n1)[C@](O)(Cn1cncn1)c1ccc(F)cc1F

>  <MIC>
0.25 to 16 µg/mL

$$$$
>  <COMPOUND>
CC(n1nnc(CCN2CCN(c3c(Cl)cccc3Cl)CC2)n1)C(O)(Cn1cncn1)c1ccc(F)cc1F (configuration not stated)

>  <MIC>
1 to 16 µg/mL

$$$$
>  <COMPOUND>
CCCCOc1ccccc1N1CCN(CCc2nnnn2C(C)C(O)(Cn2cncn2)c2ccc(F)cc2F)CC1 (configuration not stated)

>  <MIC>
0.5 to 16 µg/mL

$$$$
>  <COMPOUND>
C[C@H](n1nnnc1CCN1CCN(c2ccc([N+](=O)[O-])cc2)CC1)[C@](O)(Cn1cncn1)c1ccc(F)cc1F

>  <MIC>
0.12 to 16 µg/mL

$$$$
>  <COMPOUND>
C[C@H](n1nnnc1CCN1CCN(Cc2ccccc2)CC1)[C@](O)(Cn1cncn1)c1ccc(F)cc1F

>  <MIC>
0.12 to 16 µg/mL

$$$$
>  <COMPOUND>
OC(Cn1cncn1)(Cn1nnc(CCN2CCN(c3ccccc3)CC2)n1)c1ccc(F)cc1F (configuration not stated)

>  <MIC>
1 to 16 µg/mL

$$$$
>  <COMPOUND>
OC(Cn1cncn1)(Cn1nnnc1CCN1CCN(c2ccccc2)CC1)c1ccc(F)cc1F (configuration not stated)

>  <MIC>
0.5 to 16 µg/mL

$$$$
>  <COMPOUND>
COc1ccccc1N1CCN(CCc2nnnn2[C@@H](C)[C@](O)(Cn2cncn2)c2ccc(F)cc2F)CC1

>  <MIC>
0.12 to 16 µg/mL

$$$$
>  <COMPOUND>
OC(Cn1cncn1)(Cn1nnnc1CCN1CCN(c2ccc(Cl)cc2)CC1)c1ccc(F)cc1F (configuration not stated)

>  <MIC>
0.5 to 16 µg/mL

$$$$
>  <COMPOUND>
O=[N+]([O-])c1ccc(N2CCN(CCc3nnn(CC(O)(Cn4cncn4)c4ccc(F)cc4F)n3)CC2)cc1 (configuration not stated)

>  <MIC>
1 to 16 µg/mL

$$$$
>  <COMPOUND>
C[C@H](n1nnc(CCN2CCN(c3c(Cl)cccc3Cl)CC2)n1)[C@](O)(Cn1cncn1)c1ccc(F)cc1F

>  <MIC>
0.25 to 16 µg/mL

$$$$
>  <COMPOUND>
CC(n1nnnc1CCN1CCN(Cc2ccccc2)CC1)C(O)(Cn1cncn1)c1ccc(F)cc1F (configuration not stated)

>  <MIC>
0.5 to 16 µg/mL

$$$$
